experimental.protocol: small-molecule microarray binders of probe aEGFR, primary screen, biochemical, biotinylated probe, 635/667 nm fluorescence (AID 1097);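 note: probe is a biotinylated anti-EGFR antibody binding compounds printed on slides; score combines fluorescence near 667 nm and signal to noise of each spot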
particulars: higher = more signal
observation.type: composite z-score
Output: the number by itself.

The cases that follow already have their composite z-score on record.
O=C(NCCN1CCOCC1)C1N=C(c2ccc(OCCCO)cc2)N(c2ccccc2)O1 (configuration not stated)    -0.0099
COC(=O)[C@@]1(Cc2ccc(OC)cc2)[C@H]2c3cc(C(=O)N4CCCC4)n(CCN4CNCC4=O)c3C[C@H]2CN1C(=O)c1ccccc1    1.15
O=C1NC(=O)C2C1C=CC(C(O)c1cc(C(F)(F)F)cc(C(F)(F)F)c1)N2Nc1ccccn1 (configuration not stated)    -0.129
CC(CO)N1C(=O)[C@@H]2C3C(=O)OCCC/C=C\[C@H]3OC23C=CCN(C(C)(C)C)C(=O)[C@@H]13 (some centres not stated)    -0.0905

Value of composite z-score reported for the compound O=C1OCCC/C=C\[C@H]2OC34C=CCN(Cc5ccccc5)C(=O)[C@H]3N(CCCO)C(=O)[C@@H]4C12 (some centres not stated) is -0.246

Given item COCCOC(=O)N1C(=O)[C@@]2(c3cc(C#CCC(C(=O)OC)C(=O)OC)ccc31)[C@H](C(=O)Nc1nc3ccccc3s1)[C@H]1C(=O)O[C@H](c3ccccc3)[C@H](c3ccccc3)N1[C@@H]2c1ccccc1OCCO , the value recorded as its composite z-score is 0.0556

Recorded composite z-score (compound C=C(/C(=C/C[C@H](OC(C)=O)c1ccc(CO)o1)c1cc(C(=O)OC)ccc1OC)C(C)C ): -0.0206
